The measured values listed here are drawn from paper PMC6516726.

Target: L25A PETNR (Enterobacter cloacae, UniProt P71278, L26A)
Sequence (P71278 entry or part of it L26A): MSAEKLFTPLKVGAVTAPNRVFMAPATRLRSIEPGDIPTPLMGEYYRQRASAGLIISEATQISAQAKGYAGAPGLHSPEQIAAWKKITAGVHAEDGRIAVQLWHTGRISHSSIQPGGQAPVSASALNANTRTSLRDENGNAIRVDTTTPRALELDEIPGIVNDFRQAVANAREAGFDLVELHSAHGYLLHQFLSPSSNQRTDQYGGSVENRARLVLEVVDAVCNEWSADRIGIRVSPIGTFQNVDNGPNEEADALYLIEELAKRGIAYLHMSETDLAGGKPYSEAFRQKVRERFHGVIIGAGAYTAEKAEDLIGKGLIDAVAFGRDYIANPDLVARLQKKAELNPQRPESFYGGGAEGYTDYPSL
Settings: 30 °C; 10 mM NADPH or 25 mM NADH; pH 7.0
recordedEndpoint: kobs1 (s⁻¹)
Report only the number, with the unit s⁻¹ understood.

Example entries begin here.
| compound | unitName | kobs1 |
| --- | --- | --- |
| [2H][C@@H]1C=CN([C@@H]2O[C@H](COP(=O)(O)OP(=O)(O)OC[C@H]3O[C@@H](n4cnc5c(N)ncnc54)[C@H](OP(=O)(O)O)[C@@H]3O)[C@@H](O)[C@H]2O)C=C1C(N)=O [(R)-[4-^2H]-NADPH] | s⁻¹ | 10.24 |
| [2H][C@@H]1C=CN([C@@H]2O[C@H](COP(=O)(O)OP(=O)(O)OC[C@H]3O[C@@H](n4cnc5c(N)ncnc54)[C@H](O)[C@@H]3O)[C@@H](O)[C@H]2O)C=C1C(N)=O [(R)-[4-^2H]-NADH] | s⁻¹ | 0.612 |
| NC(=O)C1=CN([C@@H]2O[C@H](COP(=O)(O)OP(=O)(O)OC[C@H]3O[C@@H](n4cnc5c(N)ncnc54)[C@H](OP(=O)(O)O)[C@@H]3O)[C@@H](O)[C@H]2O)C=CC1 | s⁻¹ | 59.63 |

Turning to the following compound.
Q: Consider the compound shown here: NC(=O)C1=CN([C@@H]2O[C@H](COP(=O)(O)OP(=O)(O)OC[C@H]3O[C@@H](n4cnc5c(N)ncnc54)[C@H](O)[C@@H]3O)[C@@H](O)[C@H]2O)C=CC1 What is its recorded kobs1?
A: 4.23
